tested on: MS2 coat protein; assay: apparent KD of MS2 coat protein; higher = weaker reporter binding; conditions: Eterna round: R107; input ligand: arginine 13.2 mM
endpoint: apparent KD of MS2 coat protein (nM)
Report the value in nM with no unit label.

Solved cases below.
| entry.sequence | endpoint | measured.value |
| --- | --- | --- |
| UCGCUCGCCGAAAGGCGAGCGAGUUGCGAUACCAGCCCGGAAACGGGCCCUUGGCAGCGCACAUGAGGAUCACCCAUGUCAUGUU [#1 Exclusion - Theophylline A Attempt #3 (HarryS)] | apparent KD of MS2 coat protein | 13.4 |
| CGGUCGGUCGGCCGGUGAUUAUGGGAUGAAGGAGCGUGGGAAGCUACAGGUAGGUCGCAUCCGAAACACGAGGAUCACCCGUGUU [SSArg A #25Alt-Ms2 Mod] | apparent KD of MS2 coat protein | 26.5 |
| AAUGAUGCGAUCUACAGUCGAGGAUUCGAUACCAGCAACGGGCGUUGCCCUUGGCAGCGAGCUACAUGAGGAUCACCCAUGUUAC [theeternabot_exclusion_MS2_Theo_A_45] | apparent KD of MS2 coat protein | 16.8 |
| GCAUCCUAGUCGGCCGCCACUGGUACGAACACCUUCACCCGUGUGCACAUGAGGAUCACCCAUGUCAGGACCGGGACUAGGAUGC [SSTryp B #22] | apparent KD of MS2 coat protein | 9.48 |

Continue with the sequence presented below.
Briefly, apparent KD of MS2 coat protein measured for AUGCAUAGCCGAAGGAGCGCAAUAGAAUGACAUGAGGAUCACCCAUGUGUGUGAUGUGGAUUGCAGGUAGGUCGCGGAGUGGUAU [Exclusion - Arginine B (Freestyle 4)] : 34.2
